The origin of these recorded values is patent US20210246166A1.

Listed next: entries and their corresponding rat MASP2 IC50.
Target: recombinant rat MASP2 active protease (amino acids 296-685, C-terminal His Tag) (rat, UniProt Q9JJS8 296-685)
Sequence (Q9JJS8 other isoform, or with tags, fused parts or gaps limits assumed): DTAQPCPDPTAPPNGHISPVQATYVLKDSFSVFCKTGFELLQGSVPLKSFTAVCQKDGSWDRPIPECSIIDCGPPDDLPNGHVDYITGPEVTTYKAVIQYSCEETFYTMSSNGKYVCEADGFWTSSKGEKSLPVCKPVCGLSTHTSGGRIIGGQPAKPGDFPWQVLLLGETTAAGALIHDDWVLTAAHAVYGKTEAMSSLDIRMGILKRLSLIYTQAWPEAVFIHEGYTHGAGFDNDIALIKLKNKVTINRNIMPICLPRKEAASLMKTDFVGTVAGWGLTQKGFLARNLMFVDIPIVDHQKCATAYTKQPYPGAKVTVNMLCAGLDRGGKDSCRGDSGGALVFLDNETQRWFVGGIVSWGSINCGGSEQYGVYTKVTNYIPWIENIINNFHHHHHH
Assay: cell-based or functional assay
Bridge positions count the residues as written; N and C are the ends. Square brackets hold non-standard residues; d marks the D form. Ends that are not written are not given here. * marks the point of attachment. X5 = Tetrahydropyranyl‑4‑acetic acid, O=C(CC1CCOCC1)*; Oic = O=C(O)[C@@H]1C[C@@H]2CCCC[C@@H]2N1; tBuAla = CC(C)(C)C[C@H](N)C(=O)O; Pen = CC(C)(S)[C@H](N)C(=O)O; NMeC = CN[C@@H](CS)C(=O)O; PEG2 = NCCOCCOCCC(=O)O; Sar = CNCC(=O)O
Enter your answer as a number in nM; do not include the unit.

# count of solved cases: 3
Binder	Scale unit	rat MASP2 IC50
[Sar]ICSRS[tBuAla]PPI[Pen]IP-{PEG2-NH2} (disulfide 3-11) [Example 207: ((N-Me)G)-IC+SRS-((tBu)A)-PPI-(Pen)+IP-(PEG1(10 atoms))-NH2]	nM	33.6
[Sar]ICSRSLP[Oic]I[Pen]IPR-OH (disulfide 3-11; N-terminus assumed; SMILES CC[C@H](C)[C@H](NC(=O)CNC)C(=O)N[C@H]1CSSC(C)(C)[C@@H](C(=O)N[C@H](C(=O)N2CCC[C@H]2C(=O)N[C@@H](CCCNC(=N)N)C(=O)O)[C@@H](C)CC)NC(=O)[C@H]([C@@H](C)CC)NC(=O)[C@@H]2C[C@@H]3CCCC[C@@H]3N2C(=O)[C@@H]2CCCN2C(=O)[C@H](CC(C)C)NC(=O)[C@H](CO)NC(=O)[C@H](CCCNC(=N)N)NC(=O)[C@H](CO)NC1=O) [Example 487: ((N-Me)G)-IC+SRSLP-(Oic)-I-(Pen)+IPR-OH]	nM	38
X5-ICSRS[tBuAla]PPI[NMeC]I-NH2 (disulfide 2-10; SMILES CC[C@H](C)[C@H](NC(=O)[C@@H]1CSSC[C@H](NC(=O)[C@@H](NC(=O)CC2CCOCC2)[C@@H](C)CC)C(=O)N[C@@H](CO)C(=O)N[C@@H](CCCNC(=N)N)C(=O)N[C@@H](CO)C(=O)N[C@@H](CC(C)(C)C)C(=O)N2CCC[C@H]2C(=O)N2CCC[C@H]2C(=O)N[C@@H]([C@@H](C)CC)C(=O)N1C)C(N)=O) [Example 305: (Tetrahydropyranyl-4-acetic acid)-IC+SRS-((tBu)A)-PPI-((N-Me)C)+I-NH2]	nM	5.3

Request the reported rat MASP2 IC50 associated with AICSRSLP[Oic]I[Pen]IPD-OH (disulfide 3-11; also: HCl salt) [Example 29: AIC+SRSLP-(Oic)-I-(Pen)+IPD-OH (HCl salt)]
17.4

Request the reported rat MASP2 IC50 associated with AICSRSLP[Oic]ICIPD-NH2 (disulfide 3-11; N-terminus assumed; SMILES CC[C@H](C)[C@H](NC(=O)[C@H](C)N)C(=O)N[C@H]1CSSC[C@@H](C(=O)N[C@H](C(=O)N2CCC[C@H]2C(=O)N[C@@H](CC(=O)O)C(N)=O)[C@@H](C)CC)NC(=O)[C@H]([C@@H](C)CC)NC(=O)[C@@H]2C[C@@H]3CCCC[C@@H]3N2C(=O)[C@@H]2CCCN2C(=O)[C@H](CC(C)C)NC(=O)[C@H](CO)NC(=O)[C@H](CCCNC(=N)N)NC(=O)[C@H](CO)NC1=O) [Example 224: AIC+SRSLP-(Oic)-IC+IPD-NH2]
42.4
